Let's look at some compounds and their measured growth.
test system: A549/ATCC NSCLC; assay: NCI-60 one-dose screen, 48 h (100 = growth as untreated, 0 = no growth, -100 = all killed); conditions: 10 µM unless noted
Compounds without any hit were thinned out: in the full panel of roughly 83,000, 20% have a hit.
Give just the number in %; leave the unit off.

Before answering, review these 6 worked examples.
Compound: COc1cccc(-c2cc(-c3cccc(Cl)c3)c(C#N)c(=O)[nH]2)c1
Scale Unit: %
growth: 70.9

Compound: COC(=O)CC[C@@H]1O[C@@H](c2ccc(F)cc2)[C@@H](O)[C@H]1O
Scale Unit: %
growth: 112

Compound: Cc1ccc(C(=O)c2ccc(CC(=O)N=Nc3c(O)[nH]c4ccc(Br)cc34)n2C)cc1
Scale Unit: %
growth: 87.2

Compound: Cc1[nH]c(C2CC(c3ccc(C(F)(F)F)c(F)c3)=NN2c2ccccc2)c(C)c1C(=O)NCC(F)(F)F (stereo not drawn)
Scale Unit: %
growth: 84.8

Compound: Nc1nc(N)c2c(n1)NC(c1cccc(Nc3ccnc4cc(C(F)(F)F)ccc34)c1)CC(c1ccc(Br)cc1)=N2 (stereo not drawn)
Scale Unit: %
growth: 45.9

Compound: COc1ccc(C2=NN(C(C)=O)C(c3cn(-c4ccccc4)nc3-c3ccc(Cl)cc3)C2)cc1 (stereo not drawn)
Scale Unit: %
growth: 14.3

Please report the measured growth for `O=C(/C=C/c1cccc(Cl)c1Cl)Nc1ncc(Cc2ccccc2Cl)s1`
58.2

Please report the measured growth for `CC1=C(C(=O)Nc2nc(-c3ccc(Cl)cc3)cs2)[C@H](c2ccc(O)cc2)NC(=O)N1`
95.1

Please report the measured growth for CCN1C(=O)N(CC)C2C1NC(=S)N2/N=C/c1ccc(C(F)(F)F)cc1 (stereo not drawn)
39.8

Please report the measured growth for `CCNC(=O)Oc1ccc(/C(=C(/CC)Cc2ccccc2)c2ccc(OCCN3CCCC3)cc2)cc1`
98.4

Please report the measured growth for `CCOc1c(OC)cc2c(c1O)C(=O)N[C@@H]1[C@@H](O)[C@@H](O)[C@H](O)C[C@@H]21`
94.7

Please report the measured growth for `CNC(=O)c1cc(Oc2ccc3c(c2)sc2nc(-c4ccc(OC)cc4)cn23)ccn1`
15.9

Please report the measured growth for `CCN(CC)CCCOc1ccc2ncnc(Nc3ccc(Oc4cccc(C(F)(F)F)c4)c(Cl)c3)c2c1`
5.61

Please report the measured growth for O=C(NC1CC(F)C1)c1cc2cccnc2n1-c1ccc(Cl)c(Cl)c1 (stereo not drawn)
96.5
